System: SW620
Test: OncoPanel cytotoxicity assay
Type: cell-based
Conditions: Homo sapiens, SW-620, 72 hour incubation
Endpoint name: pIC50
# pIC50: negative log10 of molar concentration; output just the value

Consider `CC1(C)CCC2(CC1)N[C@@H](C(=O)N[C@@H]1CC[C@@H](C(N)=O)OC1)[C@H](c1ccnc(Cl)c1F)[C@]21C(=O)Nc2cc(Cl)ccc21` . Its measured pIC50 is 5.15

###

Property: pIC50; scope: individual molecules
Tested on: SKMES1
Test: OncoPanel cytotoxicity assay
Assay type: cell-based
Details: Homo sapiens, SK-MES-1, 72 hour incubation
# pIC50: negative log10 of molar concentration; output just the value

| Compound | pIC50 |
| --- | --- |
| CC1(C)CCC2(CC1)N[C@@H](C(=O)N[C@@H]1CC[C@@H](C(N)=O)OC1)[C@H](c1ccnc(Cl)c1F)[C@]21C(=O)Nc2cc(Cl)ccc21 | 5.06 |

Next:
Consider `CC[C@@H]1CNC2(CC2)CN1C(=O)[C@@H]1C[C@@H](F)CN1C(=O)C1=C(C(C)C)N2C(=N[C@@](C)(c3ccc(Cl)nc3)[C@H]2c2ccc(Cl)c(F)c2)S1` . Its measured pIC50 is 4.47

###

Test system: ST486
Assay: OncoPanel cytotoxicity assay
Type: cell-based
Conditions: Homo sapiens, 72 hour incubation
Endpoint name: pIC50
# pIC50: negative log10 of molar concentration; output just the value

| Compound | pIC50 |
| --- | --- |
| CC[C@@H]1CNC2(CC2)CN1C(=O)[C@@H]1C[C@@H](F)CN1C(=O)C1=C(C(C)C)N2C(=N[C@@](C)(c3ccc(Cl)nc3)[C@H]2c2ccc(Cl)c(F)c2)S1 | 4.61 |

ST486 data for `CC1(C)CCC2(CC1)N[C@@H](C(=O)N[C@@H]1CC[C@@H](C(N)=O)OC1)[C@H](c1ccnc(Cl)c1F)[C@]21C(=O)Nc2cc(Cl)ccc21` ; its pIC50: 5.19

###

Test system: 769-P
Assay: OncoPanel cytotoxicity assay
Type: cell-based
Details: Homo sapiens, 72 hour incubation
Endpoint name: IC50
Express the reported value numerically, then name its unit.

| Compound | IC50 |
| --- | --- |
| CC1(C)CCC2(CC1)N[C@@H](C(=O)N[C@@H]1CC[C@@H](C(N)=O)OC1)[C@H](c1ccnc(Cl)c1F)[C@]21C(=O)Nc2cc(Cl)ccc21 | 36 nM |

Next:
Consider `CC[C@@H]1CNC2(CC2)CN1C(=O)[C@@H]1C[C@@H](F)CN1C(=O)C1=C(C(C)C)N2C(=N[C@@](C)(c3ccc(Cl)nc3)[C@H]2c2ccc(Cl)c(F)c2)S1` . Its measured IC50 is 442 nM

###

Test system: C32
Experiment: OncoPanel cytotoxicity assay
Type: cell-based
Conditions: Homo sapiens, 72 hour incubation
pIC50: −log10 of the molar value.
Property: pIC50; scope: individual compounds

| Compound | Result |
| --- | --- |
| CC1(C)CCC2(CC1)N[C@@H](C(=O)N[C@@H]1CC[C@@H](C(N)=O)OC1)[C@H](c1ccnc(Cl)c1F)[C@]21C(=O)Nc2cc(Cl)ccc21 | < 5.00 |

Consider `CC[C@@H]1CNC2(CC2)CN1C(=O)[C@@H]1C[C@@H](F)CN1C(=O)C1=C(C(C)C)N2C(=N[C@@](C)(c3ccc(Cl)nc3)[C@H]2c2ccc(Cl)c(F)c2)S1` . Its measured pIC50 is < 4.40

Hey, just so you know, these numbers are from patent US20160333419A1.
